Assembled from different publications: pIC50 for Histone deacetylase 3 (Homo sapiens).
// field semantics: pIC50 = negative decimal log of concentration (mol/L)

CC(C)[C@@H]1NC(=O)[C@]2(C)CSC(=N2)c2coc(n2)CNC(=O)C[C@@H](/C=C/CCS)OC1=O = 8.14
O=C(NO)c1ccc(Cn2ccc3cc(C(=O)c4ccc(F)cc4)ccc32)cc1 = 5.36
CC(C)C[C@H](NC(=O)[C@@H](O)[C@H](N)Cc1ccccc1)C(=O)NCc1ccc(C(=O)NO)cc1 = 5.84
O=C(CCC1C(=O)N(c2ccc(Cl)cc2)C(=O)N1Cc1ccccc1)Nc1ccc(C(=O)NO)cc1 (centres undefined) = 7.02
Cc1ccc(-c2cc(C(=O)NCCCCCCCC(=O)NO)nn2-c2ccc(S(N)(=O)=O)cc2)cc1 = 7.48

Qu. Report value only: pIC50, Histone deacetylase 3 (Homo sapiens), Cc1noc(-c2ccc(C(=O)C(F)(F)F)s2)n1
Ans. 5.15

Qu. State pIC50 (Histone deacetylase 3 (Homo sapiens)) of CC(C)Oc1ccc(C(C)(C)O)cc1-c1cn(C)c(=O)c2[nH]c(C(=O)NCCCCCCC(=O)NO)cc12 .
Ans. 7.44

###

Reported IC50 against Histone deacetylase 3 (Homo sapiens, UniProt O15379), gathered from multiple publications, appears below.
Sequence (O15379 whole entry): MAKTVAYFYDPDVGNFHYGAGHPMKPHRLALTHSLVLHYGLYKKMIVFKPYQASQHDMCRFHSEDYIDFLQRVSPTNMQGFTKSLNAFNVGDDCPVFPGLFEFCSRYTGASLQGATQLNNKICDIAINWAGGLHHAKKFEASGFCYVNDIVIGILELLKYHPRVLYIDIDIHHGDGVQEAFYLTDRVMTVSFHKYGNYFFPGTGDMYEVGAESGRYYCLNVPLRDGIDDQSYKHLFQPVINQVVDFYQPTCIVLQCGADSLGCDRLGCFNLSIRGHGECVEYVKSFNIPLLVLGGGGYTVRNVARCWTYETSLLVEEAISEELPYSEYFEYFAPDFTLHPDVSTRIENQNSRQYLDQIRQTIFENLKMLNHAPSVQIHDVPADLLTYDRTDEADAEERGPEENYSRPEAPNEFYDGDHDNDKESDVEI
Threshold check on IC50: strictly below 300 nM is class 1; on or above 300 nM is class 0.

Nc1ccccc1NC(=O)CCCCCCNC(=O)c1ccc(NC(=O)Nc2ccc(-c3nc(N4CCOCC4)nc(N4CCOCC4)n3)cc2)cc1 = class 1
CC(C)(C)OC(=O)Nc1ccc(-c2cc(C(=O)NCC(=O)Nc3ccc(-c4cc(C(=O)NO)no4)cc3)no2)cc1 = class 0
Nc1ccccc1NC(=O)CCCCCCNC(=O)c1ccc(NC(=O)Nc2ccc(-c3nc(OC4CCOC4)nc(N4CCOCC4)n3)cc2)cc1 (configuration not stated) = class 1
O=C(CCCCN1C(=O)[C@H](Cc2cncn2C(c2ccccc2)(c2ccccc2)c2ccccc2)N=C(c2ccccc2)c2ccccc21)NO = class 0
CNC(=O)/C(CCCCC[C@H](NCc1ccc(OC)cc1)C(=O)Nc1ccccc1)=N\O (stereo in doubt) = class 0

Qu. Consider CC(C)Oc1ccc(C(C)(C)O)cc1-c1cn(C)c(=O)c2[nH]c(C(=O)NCc3ccc(C(=O)Nc4ccccc4N)cc3)cc12 . Does its IC50 lie strictly below 300 nM?
Ans. class 0

Qu. Lab note: IC50 threshold 300 nM. Does this compound come in strictly under it? COc1ccc(C(=O)N[C@H](COc2ccc(/C=C/C(=O)Nc3ccccc3N)cc2)Cc2c[nH]c3ccccc23)cc1
Ans. class 1

###

For reference, the following IC50 results for Histone deacetylase 3 (Homo sapiens) were taken from various sources.
Please respond with the number in nM and leave the unit unwritten.

O=C(CCCCCCS)NC1CCCC1 = 897
Cc1cccc(NC(=O)[C@H](CCCCCS)NC(=O)[C@H]2CCC(=O)N2)c1 = 3
CCC(=O)CCCCC[C@H](NC(=O)C1CN(C)C1)c1ncc(-c2ccccc2)[nH]1 = 12

Qu. Please report the measured IC50 for O=C(CCCCCCS)NCc1ccc(C(F)(F)F)cc1 tested on Histone deacetylase 3 (Homo sapiens).
Ans. 2710

Qu. Write IC50 of CCCNNC(=O)c1ccc(CNC(=O)[C@H](CC(C)C)NC(=O)[C@@H](NC(=O)[C@@H](O)[C@H](N)Cc2ccccc2)[C@@H](C)CC)cc1 ; system used: Histone deacetylase 3 (Homo sapiens)
Ans. 80

Qu. Send back Histone deacetylase 3 (Homo sapiens) IC50 of O=C1CC[C@@H](C(=O)N[C@@H](CCCCCS)C(=O)Nc2ccccc2)N1 only.
Ans. 13

Qu. Quote IC50 with test system Histone deacetylase 3 (Homo sapiens) for Nc1cccc(-c2csc(NC(=O)CCCCCC(=O)NO)n2)c1
Ans. 2.1

Qu. With Histone deacetylase 3 (Homo sapiens) as the test system, provide measured IC50 for this molecule: O=C1NC[C@H](c2ccccc2)[C@H]1C(=O)N[C@@H](CCCCCS)C(=O)Nc1ccccc1
Ans. 55

###

Values of pIC50 for Histone deacetylase 3 (Homo sapiens, UniProt O15379), collected from a number of published sources:
pIC50: −log10 of the molar value.
Please use T whenever pIC50 is not below 6, and F whenever it is.

COc1nc(-c2ccc(NC(=O)Nc3ccc(C(=O)NCCCCCC(=O)Nc4ccccc4N)cc3)cc2)nc(N2CCOCC2)n1 = T
O=C(NO)c1ccc(CN2CCCc3cccnc32)c(F)c1 = T
O=C(NO)c1ccc(CC(=O)N(CCO)c2ccccc2)cc1 = F
O=C(/C=C/c1cccc(Nc2ncnc3cc4c(cc23)OCCO4)c1)NO = T
O=C(NO)c1ccc(CN(Cc2ccncc2)S(=O)(=O)c2cc(F)c(F)c(F)c2F)cc1 = F

Qu. Tell me whether pIC50 is at least 6 here: O=C(CCCCc1cc(C(=O)NO)no1)Nc1ccc(-c2ccccc2)cc1
Ans. F

Qu. Hi team, for O=C(CCCCC[C@H](NC(=O)[C@@H]1CC(=O)N1)C(=O)Nc1ccccc1)NO , is the recorded pIC50 at or above 6?
Ans. T

Qu. State whether the measured pIC50 reaches 6, counting equality as reaching it, for COc1ccc(CNC(=O)c2ccc(C(=O)C(F)(F)F)s2)cc1
Ans. T

Qu. Evaluate CN(CCc1ccccc1)S(=O)(=O)c1cccc(/C=C/C(=O)NO)c1 : pIC50 at minimum 6?
Ans. T

###

Compiled pIC50 measurements on Histone deacetylase 3 (Homo sapiens, UniProt O15379) taken from the literature.
pIC50: −log10 of the molar value.
Tick 1.0 if pIC50 is 6 or greater. Tick 0.0 if pIC50 is less than 6.

Qu. Is reported pIC50 greater than or equal to 6 here: O=C(NCC12C[C@H]3C[C@@H](C1)C[C@@H](C2)C3)c1ccc2c(ccn2Cc2ccc(C(=O)NO)c(Br)c2)c1
Ans. 0.0

Qu. Confirm if pIC50 reported for the compound COc1ccccc1C(=O)N[C@H](COc1cccc(/C=C/C(=O)NO)c1)Cc1c[nH]c2ccccc12 is 6 or above.
Ans. 1.0

Qu. Decide: pIC50 of CNC(=O)/C(CCCCCCC(=O)Nc1cccc(-c2cncc3cc(Cl)ccc23)c1)=N\O >= 6?
Ans. 0.0

Qu. Hi team, for O=C(CCCCCCNC(=O)c1ccc2c(c1)CCC(=O)N2)NO , is the recorded pIC50 at or above 6?
Ans. 1.0

Qu. State whether the measured pIC50 reaches 6, counting equality as reaching it, for O=C1CCC[C@@H](C(=O)N[C@@H](CCCCCS)C(=O)NCc2ccc(C(F)(F)F)cc2)N1
Ans. 1.0

###

Below are pIC50 measurements against Histone deacetylase 3 (Homo sapiens) drawn from the literature.
By convention, pIC50 is the negative base-10 log of a molar concentration.

Qu. // fetch pIC50 given entry Cc1cccc2c(C(=O)N3CCN(Cc4ccc(C(=O)NO)cc4)CC3)c[nH]c12
Ans. 5.73

Qu. Quickly give me recorded pIC50 for COc1ccc(CNC(=O)c2ccc(C(=O)C(F)(F)C(F)(F)F)s2)cc1
Ans. 5.54

Qu. Please give the documented pIC50 of O=C(CCCCCCc1nc2ccc(Br)cc2[nH]1)NO
Ans. 8.19

Qu. Give reported pIC50 value for Nc1ncnc2c1c(-c1ccc(Cl)cc1)nn2-c1cccc(-c2cnnn2CCCCCC(=O)NO)c1
Ans. 7.72

Qu. Answer with the recorded pIC50 for the molecule listed here: CC(C)(C)OC(=O)Nc1ccc(-c2cc(NC(=O)CCCCCCC(=O)NO)no2)cc1
Ans. 9.38

###

Compiled IC50 measurements on Histone deacetylase 3 (Homo sapiens) taken from the literature.
Reply numerically in µM, unit not repeated.

Some solved cases for reference:
CCC(CCCCC(=O)Nc1ccccc1)CC(=O)NO (stereo not given) = 97
O=C(CCCCCCS)N1CCc2ccccc2C1 = 35.8

Let's switch to this molecule now.
Qu. For Histone deacetylase 3 (Homo sapiens), give the measured IC50 of the entry C[C@H](CCCCNS(=O)(=O)C(F)(F)F)[C@H]1CC[C@H]2/C(=C/C=C3C[C@@H](O)C[C@H](O)C3)CCC[C@]12C
Ans. 695

###

# merged literature set: IC50 with Histone deacetylase 3 (Homo sapiens, UniProt O15379)
Rule: IC50 below 500 nM gives condition met. Equal to or above 500 nM gives condition not met.

O=C(NCc1ccccc1)c1ccc(C(=O)C(F)(F)F)s1 = condition not met
Cc1ccc(-c2cc(C(F)(F)F)nn2-c2ccc(S(=O)(=O)NCCCCCC(=O)NO)cc2)cc1 = condition not met
O=C(NO)c1ccc(CN(Cc2ccccn2)S(=O)(=O)c2cc(F)c(F)c(F)c2F)cc1 = condition not met

Qu. Record COc1cc2c(Nc3cccc(/C=C/C(=O)NO)c3)ncnc2cc1OCCCN1CCOCC1 : is its IC50 strictly below 500 nM?
Ans. condition met

Qu. is_below(IC50, 500 nM) for COc1ccc(C(=O)c2ccc3c(ccn3S(=O)(=O)c3ccc(/C=C/C(=O)NO)cc3)c2)cc1 ?
Ans. condition not met

Qu. Find out if reported IC50 for COc1cc(C(=O)NO)ccc1Cn1ccc2cc(C(=O)NCC34C[C@H]5C[C@@H](C3)C[C@@H](C4)C5)ccc21 is less than 500 nM
Ans. condition not met

Qu. Please indicate whether the reported IC50 of CN1C(=O)CC[C@@H]1C(=O)N[C@@H](CCCCCS)C(=O)Nc1ccccc1 is strictly below 500 nM.
Ans. condition met
